For each of the compounds below, state its TGI.
# Tested on: SK-OV-3 ovarian
# TEST DESCRIPTION: NCI tumour cell line growth inhibition, 48 h

COMPOUND: CC(=O)[C@H]1CCC2[C@@H]3CC=C4C[C@@H]([O-])CC[C@]4(C)C3CC[C@@]21C.CC(=O)[C@H]1CCC2[C@@H]3CC=C4C[C@@H]([O-])CC[C@]4(C)C3CC[C@@]21C.CC(=O)[CH-]C(=O)c1ccccc1.CC(=O)[CH-]C(=O)c1ccccc1.Cl.[Ti+4] (some centres not stated)
TGI: 77.4 µM

Would you mind giving TGI for every compound in the list below?
1. CC(C)CC(N)C(=O)Nc1ccc2ccccc2c1 (configuration not stated)
2. CCCCCCCCCOCC(COP(=O)([O-])OCC[N+](C)(C)C)OC (configuration not stated)
3. COc1ccc2c(c1)CCCN1CCc3ccccc3C21 (configuration not stated)
4. O=C1O[C@H]2[C@H](OC(=O)c3cc(O)c(O)c(O)c3)[C@@H](OC(=O)c3cc(O)c(O)c4c3[C@@H]3C1=CC(=O)C(O)(O)C3(O)O4)[C@H](OC(=O)c1cc(O)c(O)c(O)c1)O[C@@H]2COC(=O)c1cc(O)c(O)c(O)c1 (some centres not stated)
5. CCOc1ccccc1N=Nc1c(-c2ccccc2)nn(C(=O)CC(=O)Nc2cccc(C)c2)c1-c1ccccc1

Reply:
1. > 100 µM
2. > 100 µM
3. > 100 µM
4. > 100 µM
5. > 100 µM

====

# Tested on: HOP-92 NSCLC
# TEST DESCRIPTION: NCI tumour cell line growth inhibition, 48 h
I'd be grateful if you could share measured TGI for these entries.

Some molecules with recorded TGI:
MOLECULE: Clc1cccc(C2N3CCCCC3[C@@H]3c4[nH]c5ccccc5c4CCN23)c1 (stereo partly drawn)
RESULT VALUE: > 100 µM
--
MOLECULE: CCN(CC)CSc1nc2ccccc2[nH]1
RESULT VALUE: > 100 µM
--
MOLECULE: NC1=NN(c2ccccc2)C(=O)C1C(=O)C(=O)Nc1ccc(Cl)c(Cl)c1 (stereo not drawn)
RESULT VALUE: > 100 µM
--
MOLECULE: COc1cc2c(c(OC)c1OC)-c1ccc(SC)c(=O)cc1[C@@H](O)CC2
RESULT VALUE: > 100 µM
--
MOLECULE: COc1c(-c2ccccc2)nc2ccc(Oc3ccccc3)nn12
RESULT VALUE: > 100 µM
--
MOLECULE: O=C(c1ccc(Cl)cc1)C(O)c1ccc(Cl)cc1 (stereo not drawn)
RESULT VALUE: > 100 µM

Field: TGI. Fill in for each record below.
1. CSc1ccc(Nc2cc(=O)[nH]c(=O)[nH]2)cc1
2. COC(C)(C)/C=C/c1[nH]c2ccccc2c1CC(=O)NCCc1cn(C(c2ccccc2)(c2ccccc2)c2ccccc2)cn1
3. COC(=O)C1C(=O)O[C@@H](c2cc(OC)c(OC)cc2OC)C1C(=O)OC (mixture of isomers)
4. CC1NC(=O)C2=C1C(=O)NC(=O)C2 (stereo not drawn)
5. O=C(NCC1CCCO1)c1ccc(NC2=C(Cl)C(=O)N(Cc3ccccc3)C2=O)cc1 (stereo not drawn)
6. CSc1nc2c(c(=O)n1C)CN(C1CCCCC1)C(=O)C(c1ccccc1)N2 (stereo not drawn)

Reply:
1: > 100 µM; 2: > 28.3 µM; 3: > 100 µM; 4: > 100 µM; 5: 21.5 µM; 6: 91.4 µM

Each of the following entries comes with a recorded value; kindly state TGI for each.
1. O=[S@]1c2ccc3ccccc3c2N[C@@H]2[C@H]1[C@H]1C=C[C@@H]2C1
2. O=C1C=CC(=O)c2c(O)c3c(c(O)c21)C[C@H](O)[C@H](O)[C@@H]3O
3. O=C(Nc1ccc(Cl)c(Cl)c1)C(=O)C(C(=O)c1ccccc1-c1ccccc1)C1OC(=O)c2ccccc21 (stereo not drawn)
4. CC(=O)OCC(=O)OC[C@H](OCc1ccccc1)[C@@H]1[C@H](OC(C)=O)C(=O)N1Cc1ccccc1
5. O=C1/C(=C/c2ccccc2[N+](=O)[O-])N=C(c2ccccc2)N1c1nc2ccccc2s1
6. OC(CN(CCCl)CCCl)C(O)C(O)C(O)CN(CCCl)CCCl (stereo not drawn)
7. CC(=O)[C@H]1CCC/C=C/[C@@H]2C[C@H](O)C[C@H]2[C@H](O)/C=C/C(=O)O1
8. c1ccc(CNCCN(CCNCc2ccccn2)Cc2ccc3ccccc3c2)nc1

Reply:
1. > 100 µM
2. 2.87 µM
3. 30.2 µM
4. > 100 µM
5. 52.1 µM
6. > 100 µM
7. > 100 µM
8. 4.64 µM

Batch request: TGI per item, same order as input.
1. CC1=CC(C)(C)NN1C1=NS(=O)(=O)c2ccccc2N1C
2. CCCSc1ccc2[nH]c(N3C(=O)/C(=C/c4ccc(SC)cc4)N=C3c3ccccc3)cc2c1

Reply:
1: > 100 µM; 2: > 50 µM
